# Test system: gene editing with Cas9
# Experiment: Screen of 322 new SSAP proteins, gene editing activity with Cas9 (Table 5)
# Type: cell-based
# Details: normalized
Consider the following molecules; for each one, report its Cas9 with SSAP activity (normalized).
Please give only the number in your answer, with no unit.

Dear colleague, I am looking for the recorded Cas9 with SSAP activity (normalized) of the following molecule: SSAP_322: SEQ ID NO: 491; Candidatus Dependentiae bacterium (protein, Candidatus Dependentiae bacterium) CHVLNFQTDYKGEIKLAHKYSVRKIIDIYAKVVRDGDVLEIRVENGSQIVNFNPKVFNDGKIIGAFAVVKFVDGSLLYETMSKSEIDHTRVTFSKMPNGMAWKDSEGEMCRKTVLRRICKLIDLHFDSVEQEQAWNDGSDADLTKNEPVKPEIQNPFPTKAVEAVIVTEEEKLRKQLKDKDPTLQDWQIDALVREHKEANQ 0.247

Dear colleague, I am looking for the recorded Cas9 with SSAP activity (normalized) of the following molecule: SSAP_114: SEQ ID NO: 283; Methylomonas rhizoryzae (protein, listed as Methylomonas rhizoryzae) SELLSALNAPETQKPQTLPAMLKQHQPRFKAIAPRDVDVTRFSAALMADVRSNQKLAECNPMTVLGAFIRSTQLGLEPGSQLGQAYFVPFKGECQLVIGYRGMIELAYRSGKVASISARTVYENDVFEWELGTDERITHKPATGDRGALVAVYAMAKLTTGGIHFEVLDLAEIEKAKRASKSSSFGPWKDHFEEMAKKTAIRRLFKYLPVGTDLTRAVALDEKAESGSQQNDIEAETVLDGEFYPAGGGNDG −1.412
